Reported Ki values are given for each entry in this list.
- study-target: human 5-HT6 receptor (Homo sapiens, UniProt P50406)
- Sequence (P50406 whole entry): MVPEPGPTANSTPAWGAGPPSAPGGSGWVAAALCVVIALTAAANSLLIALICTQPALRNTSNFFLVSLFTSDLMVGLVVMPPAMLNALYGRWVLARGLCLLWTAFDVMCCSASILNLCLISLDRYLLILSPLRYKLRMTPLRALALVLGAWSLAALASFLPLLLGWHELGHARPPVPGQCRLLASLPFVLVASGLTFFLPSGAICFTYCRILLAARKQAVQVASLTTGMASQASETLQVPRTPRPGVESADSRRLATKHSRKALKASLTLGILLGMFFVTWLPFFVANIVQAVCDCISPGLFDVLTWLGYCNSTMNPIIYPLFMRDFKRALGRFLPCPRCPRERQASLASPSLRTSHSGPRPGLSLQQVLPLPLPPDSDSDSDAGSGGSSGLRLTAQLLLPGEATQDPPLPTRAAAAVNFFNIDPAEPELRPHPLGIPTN
- assay-protocol: Binding affinity for the 5-HT6 receptor (3H-LSD displacement, membranes of recombinant cells)
- condition: 3H-LSD radioligand, 60 minute incubation at 37 °C
Structures can show the parent of a compound that is named as a salt.

CN1CC=C(c2cn(S(=O)(=O)c3ccc(F)cc3)c3cc(Br)ccc23)CC1    ≤ 50 nM
CN1CC=C(c2cn(S(=O)(=O)c3cc(Cl)ccc3Cl)c3ccc(F)cc23)CC1    ≤ 50 nM
Cc1ccc(S(=O)(=O)n2cc(C3=CCN(C)CC3)c3cc(C(F)(F)F)ccc32)cc1 [Example 4qq, hydrochloride]    ≤ 50 nM
Cc1ccc(S(=O)(=O)n2cc(C3=CCN(C)CC3)c3cc(F)ccc32)cc1    ≤ 5 nM
CN1CC=C(c2cn(S(=O)(=O)c3ccc(Cl)cc3)c3c(F)cc(F)cc23)CC1    ≤ 5 nM

Exercise: Supply reported Ki belonging to this molecule: COc1ccc(S(=O)(=O)n2cc(C3=CCN(C)CC3)c3ccccc32)cc1
Solution: ≤ 50 nM

Exercise: Supply reported Ki belonging to this molecule: CN1CC=C(c2cn(S(=O)(=O)c3ccc(Br)cc3)c3ccc(F)cc23)CC1
Solution: ≤ 50 nM

Exercise: Supply reported Ki belonging to this molecule: CN1CC=C(c2cn(S(=O)(=O)c3ccccc3)c3ccccc23)CC1
Solution: ≤ 5 nM
